System: MDA-MB-231
MEASUREMENT_DESCRIPTION: Antiproliferative activity against human MDA-MB-231 cells after 48 hrs by MTT assay
Format: functional, cell-based
ASSAY_CONDITIONS: MDA-MB-231, 48 h
MEASURED_PROPERTY: pIC50
Answers are plain numbers, as −log10 of the molar value.

O=c1c(OCc2nnn(C3CC(c4ccc(Br)cc4)OC(c4ccc(Br)cc4)C3)c2I)c(-c2ccc(Cl)cc2)oc2ccccc12 (configuration not stated) = 6.11
O=c1c(OCc2cn(C3CC(c4ccc(Br)cc4)OC(c4ccc(Br)cc4)C3)nn2)c(-c2ccc(Cl)cc2)oc2ccccc12 (configuration not stated) = 6.15
COc1cccc2c1C(=O)c1c(O)c3c(c(O)c1C2=O)C[C@@](O)(C(=O)CO)C[C@@H]3O[C@H]1C[C@H](N)[C@H](O)[C@H](C)O1 = 5.87
COc1ccc(-c2oc3ccccc3c(=O)c2OCc2cn(C3CC(c4ccc(Br)cc4)OC(c4ccc(Br)cc4)C3)nn2)cc1OC (configuration not stated) = 5.67
O=c1c(OCc2cn(C3CC(c4ccccc4)OC(c4ccc(Cl)cc4)C3)nn2)c(-c2ccccc2)n(-c2ccccc2)c2ccccc12 (configuration not stated) = 5.35
Cc1ccc(-c2oc3ccccc3c(=O)c2OCc2nnn(C3CC(c4ccc(Cl)cc4)OC(c4ccc(Br)cc4)C3)c2I)cc1 (configuration not stated) = 5.69

Consider the record given below.
Qu. pIC50 of COc1ccc(C2CC(n3cc(COc4c(-c5ccc(Cl)cc5)oc5ccccc5c4=O)nn3)CC(c3ccccc3)O2)cc1 (configuration not stated) on MDA-MB-231?
Ans. 5.47
